Give measured LPS % cell toxicity for each item. Keep answers brief.
# System: primary rat microglia
# Test details: Cell toxicity (dead cells, size <150 μm2) in LPS assay
# Condition info: primary microglia HTS, 10 μM, LPS assay, cell size <150 μm^2 as marker of toxicity
Counter-ions that a name gives are not always drawn.
# output: bare number, implied unit %

Q. Recorded LPS % cell toxicity of COc1ccc(C(CN(C)C)C2(O)CCCCC2)cc1 (stereo not drawn) [Venlafaxine, Venlafaxine Hydrochloride] , please.
A. 0

Q. Also, COc1ccc(/C=C/C(=O)Nc2ccccc2C(=O)O)cc1OC [Tranilast] please.
A. 0

Q. Also, Cc1cc(CC(=O)O)n(C)c1C(=O)c1ccc(Cl)cc1 [Zomepirac] please.
A. 0

Q. Also, COc1ccccc1N1CCN(CCCNc2cc(=O)n(C)c(=O)n2C)CC1 [Urapidil Hydrochloride] please.
A. 0

Q. Also, CC(=O)O[C@H]1C[C@@H]2CC[C@@H]3[C@H](CC[C@@]4(C)[C@H]3C[C@H]([N+]3(C)CCCCC3)[C@@H]4OC(C)=O)[C@@]2(C)C[C@@H]1N1CCCCC1 [Vecuronium] please.
A. 1

Q. Also, Cc1cc2nc3ccc(N(C)C)cc3[s+]c2cc1N [Tolonium Chloride] please.
A. 1

###

# Tested on: fibrin- and LPS-induced microglia activation
# Test details: cells
# Assay type: cell-based, rat
# Condition info: HTS of 1907 compounds, quadrant by fibrin and LPS inhibition
Structures can show the parent of a compound that is named as a salt.
Experimental readout: Quadrant (FIG. 5b)

CNC(C)(C)Cc1ccccc1 [Mephentermine sulfate, reference compound] ... Q3
OC[C@H]1O[C@H](O[C@]2(CCl)O[C@H](CCl)[C@@H](O)[C@@H]2O)[C@H](O)[C@@H](O)[C@H]1Cl [Sucralose] ... Q4
CCOc1ccccc1OCCN[C@H](C)Cc1ccc(OC)c(S(N)(=O)=O)c1.Cl [Tamsulosin Hydrchloride] ... Q4
Cc1ccc(C(C)C)c(O)c1 [Thymol] ... Q4
COc1ncnc(NS(=O)(=O)c2ccc(N)cc2)c1OC [Sulfadoxine] ... Q4

Q. Please provide the recorded Quadrant (FIG. 5b) for CC1=C(CC(=O)O)c2cc(F)ccc2/C1=C\c1ccc(S(C)(=O)=O)cc1 [Sulindac Sulfone] , tested on fibrin- and LPS-induced microglia activation.
A. Q4

Q. Also, NS(=O)(=O)Cc1noc2ccccc12 [Zonisamide] please.
A. Q4

Q. Also, CN1CCN(CCCN2c3ccccc3Sc3ccc(C(F)(F)F)cc32)CC1 [Trifluoperazine dihydrochloride, reference compound] please.
A. Q3

###

# Test system: primary rat microglia
# Test details: Cell toxicity (dead cells, size <150 μm2) in LPS assay
# Condition info: primary microglia HTS, LPS stimulation; decreased size (<150 μm^2) as marker of toxicity
Experimental readout: LPS % cell toxicity (%)
# output: bare number, implied unit %

Q. Recorded LPS % cell toxicity of CCCc1nc(C(C)(C)O)c(C(=O)O)n1Cc1ccc(-c2ccccc2-c2nnn[nH]2)cc1 [Olmesartan] , please.
A. 0

Q. Also, C[C@H](N)[C@H](O)c1ccc(O)c(O)c1 [Levonordefrin, reference compound] please.
A. 0

Q. Also, CCOC(=O)O[C@]1(C(=O)COC(=O)CC)CC[C@H]2[C@@H]3CCC4=CC(=O)C=C[C@]4(C)[C@H]3[C@@H](O)C[C@@]21C [Prednicarbate, reference compound] please.
A. 1

Q. Also, C#C[C@]1(OC(C)=O)CC[C@H]2[C@@H]3CCC4=CC(=NO)CC[C@@H]4[C@H]3CC[C@@]21CC (mixture of isomers) [Norgestimate] please.
A. 0

###

# System: primary rat microglia
# Condition info: rat
Experimental readout: LPS % cell toxicity
Phrase the answer as number then unit, nothing more needed.

Q. Recorded LPS % cell toxicity of CCC(NC(C)C)C(O)c1ccc(O)c2[nH]c(=O)ccc12 (centres unmarked) [Procaterol] , please.
A. 0%

Q. Also, C/C(=C(\CCOP(=O)(O)O)SC(=O)c1ccccc1)N(C=O)Cc1cnc(C)nc1N [Benfotiamine] please.
A. 0%

Q. Also, COC(=O)[C@H]1[C@H]2C[C@@H]3c4[nH]c5cc(OC)ccc5c4CCN3C[C@H]2C[C@@H](OC(=O)c2cc(OC)c(OC)c(OC)c2)[C@@H]1OC [Reserpine] please.
A. 7%

Q. Also, Cc1c(O)c(=O)ccn1C [Deferiprone] please.
A. 0%

Q. Also, O=C1c2c(O)ccc(O)c2C(=O)c2c(NCCNCCO)ccc(NCCNCCO)c21 [Mitoxantrone] please.
A. 40%

Q. Also, N[C@@H](Cc1cc(I)c(Oc2ccc(O)c(I)c2)c(I)c1)C(=O)O [Liothyronine] please.
A. 1%

Q. Also, C[C@]12C=CC(=O)N[C@@H]1CC[C@@H]1[C@@H]2CC[C@]2(C)[C@@H](C(=O)Nc3cc(C(F)(F)F)ccc3C(F)(F)F)CC[C@@H]12 [Dutasteride] please.
A. 0%

Q. Also, CC(C)NCC(O)c1ccc(O)c(O)c1 (centres unmarked) [Isoprenaline] please.
A. 0%

###

Give measured IC50 for each item. Keep answers brief.
# Test details: in vitro
# Condition info: rat

Q. Recorded IC50 of C#CCN[C@@H]1CCc2ccccc21 [Rasagiline, reference compound] , please.
A. > 20 µM

Q. Also, CCN(CC)CCNc1ccc(CO)c2sc3ccccc3c(=O)c12 [Hycanthone, reference compound] please.
A. 11 µM

Q. Also, O=c1[nH]cc(F)c(=O)[nH]1 [Fluorouracil, reference compound] please.
A. > 20 µM

Q. Also, CC1(C)O[C@@H]2C[C@H]3[C@@H]4C[C@H](F)C5=CC(=O)C=C[C@]5(C)[C@@]4(F)[C@@H](O)C[C@]3(C)[C@]2(C(=O)CO)O1 [Fluocinolone acetonide, reference compound] please.
A. > 20 µM

Q. Also, O=C(NC(Cc1cc(=O)[nH]c2ccccc12)C(=O)O)c1ccc(Cl)cc1 (stereo not drawn) [Rebamipide, reference compound] please.
A. > 20 µM

Q. Also, CCC(=O)O[C@]1(C(=O)CCl)[C@@H](C)C[C@H]2[C@@H]3CCC4=CC(=O)C=C[C@]4(C)[C@@]3(F)[C@@H](O)C[C@@]21C [Clobetasol propionate, reference compound] please.
A. > 20 µM

###

# System: fibrin- and LPS-induced microglia activation
# Test details: cells
# Assay type: cell-based, rat
# Condition info: quadrant by fibrin and LPS inhibition in HTS of 1907 compounds
Experimental readout: Quadrant (FIG. 5b)

Sample answers from the record:
CC1(C)O[C@@H]2C[C@H]3[C@@H]4C[C@H](F)C5=CC(=O)CC[C@]5(C)[C@H]4[C@@H](O)C[C@]3(C)[C@]2(C(=O)CO)O1 [Flurandrenolide, reference compound] ... Q2
COc1ccc2cc1Oc1ccc(cc1)C[C@H]1c3c(cc4c(c3Oc3cc5c(cc3OC)CCN(C)[C@@H]5C2)OCO4)CCN1C [Cepharanthine] ... Q2
CCN(CC)CCNC(=O)c1ccc(NC(C)=O)cc1.Cl ... Q4
CCN(CC)CCNC(=O)c1cc(Cl)c(N)cc1OC [Metoclopramide] ... Q4
Cc1nc2ccccc2n1Cc1ccc(Cl)cc1 [Chlormidazole] ... Q1

Q. Recorded Quadrant (FIG. 5b) of COC(=O)Nc1nc2ccc(Sc3ccccc3)cc2[nH]1 [Fenbendazole, reference compound] , please.
A. Q3

Q. Also, COc1ccnc(C[S+]([O-])c2nc3cc(OC(F)F)ccc3[n-]2)c1OC.[Na+] (centres unmarked) [Pantoprazole, Pantoprazole Sodium Salt] please.
A. Q4

Q. Also, CC(=O)[C@@]12O[C@](C)(c3ccccc3)O[C@@H]1C[C@H]1[C@@H]3CCC4=CC(=O)CC[C@]4(C)[C@H]3CC[C@@]12C [Algestone acetophenide, reference compound] please.
A. Q2

###

# Tested on: primary rat microglia
# Condition info: rat
Counter-ions that a name gives are not always drawn.
Give measured LPS % cell toxicity for each item. Keep answers brief.
# output: bare number, implied unit %

Q. Recorded LPS % cell toxicity of "CC(=O)[C@H]1CC[C@H]2[C@@H]3CCC4=CC(=O)CC[C@]4(C)[C@H]3CC[C@]12C" , please.
A. 0

Q. Also, Clc1ccc(CSC(Cn2ccnc2)c2ccc(Cl)cc2Cl)cc1 (centres unmarked) please.
A. 1

Q. Also, "C[C@@H]1CC[C@H]2[C@@H](C)C(=O)O[C@@H]3O[C@@]4(C)CC[C@@H]1[C@]32OO4" please.
A. 0

Q. Also, CCCCOC(=O)c1ccccc1C(=O)OCCCC [Dibutyl Phthalate] please.
A. 0

Q. Also, "O=C1CCc2cc(OCCCCc3nnnn3C3CCCCC3)ccc2N1" please.
A. 1

Q. Also, "CNC(=O)Oc1ccc2c(c1)[C@]1(C)CCN(C)[C@@H]1N2C" please.
A. 0

Q. Also, CCOC(=O)CCC(=O)O[C@H]1[C@H](O[C@@H]2[C@@H](C)[C@H](O[C@H]3C[C@@](C)(OC)[C@@H](O)[C@H](C)O3)[C@@H](C)C(=O)O[C@H](CC)[C@@](C)(O)[C@H](O)[C@@H](C)C(=O)[C@H](C)C[C@@]2(C)O)O[C@H](C)C[C@@H]1N(C)C [Erythromycin Ethylsuccinate] please.
A. 0

Q. Also, CC(C(=O)O)c1ccc2c(c1)[nH]c1ccc(Cl)cc12 (centres unmarked) please.
A. 0

Q. Also, C=C(CC)C(=O)c1ccc(OCC(=O)O)c(Cl)c1Cl [Ethacrynic acid, reference compound] please.
A. 1

Q. Also, "O=c1oc2ccccc2c(O)c1Cc1c(O)c2ccccc2oc1=O" please.
A. 0

Q. Also, CNCCCN1c2ccccc2CCc2ccccc21 [Desipramine hydrochloride, reference compound] please.
A. 4

Q. Also, "CCOC(=O)c1ccc(N)cc1" please.
A. 0

Q. Also, "O=S(=O)(O)NC1CCCCC1" please.
A. 0

Q. Also, "C[n+]1ccccc1/C=N/O" please.
A. 0

Q. Also, "CC#C[C@]1(O)CC[C@H]2[C@@H]3CCC4=CC(=O)CCC4=C3[C@@H](c3ccc(N(C)C)cc3)C[C@@]21C" please.
A. 0

Q. Also, "CCC(=O)c1ccc(O)cc1" please.
A. 0

Q. Also, "Oc1c(Cl)cc(Cl)cc1Sc1cc(Cl)cc(Cl)c1O" please.
A. 0

These entries and their values trace back to patent US20210330611A1.
